test system: 653999-131-R-J2-PDC complex spheroid viability; test: Anticancer human tumor 653999-131-R-J2-PDC patient-derived lung adenocarcinoma cell line growth inhibition; conditions: second compound 1 µM; first compound 0.3 µM; active = viability on the fitted dose curve at most 10% of control; inactive = the rest;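 also: spheroids exposed to agents for seven days before readout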
Hi there, use one of these labels in your reply, thanks! active, inactive

Query :: Record request — test call for CCc1c2c(nc3ccc(O)cc13)-c1cc3c(c(=O)n1C2)COC(=O)[C@]3(O)CC + NC1CCC(NC2CC2c2ccccc2)CC1
Result :: active

Query :: Next molecule up: Nc1ccn(C2OC(CO)C(O)C2(F)F)c(=O)n1 (configuration not stated) + NC1CC1c1ccc(-c2cccc(O)c2)cc1
Result :: inactive

# evaluate next
Query :: Check the results log: what was the call for O=C(C=Cc1cccc(S(=O)(=O)Nc2ccccc2)c1)NO + NC1CC1c1ccc(-c2cccc(O)c2)cc1 ?
Result :: inactive
